The following binders are shown together with reported SPOT peptide array binding signal intensity values.
- measurementTarget: ScSho1
- assayOverview: SPOT peptide array binding signal intensity (averaged, normalized) (arbitrary units (background-subtracted, floor 0; scale differs between SH3 domains)); higher = stronger binding of the SH3 domain to the peptide
reportedEndpoint: SPOT peptide array binding signal intensity

> print(dat)
             binder  modifiersign  result
 1  GKKVRPLLVLLLSRA             =    1560
 2  LYEAMPPTLPHRDWK             =     257
 3  PPIPNAPLSPAPAVP             ≤       0
 4  WTQRRGPLVVYAEDN             ≤       0
 5  HGKRRAPLLLAKLDV             =     186
 6  NILKRRPLKLEAPSK             =     368
 7  KNRKNLPTIPIRLSG             =    5890
 8  KKIRLIFTYPSTVGR             =    2150
 9  SSSSSPPPLPTRRDH             =    26.5
10  LLIRWLILMPLVGSR             =    2890
11  LPPPPPPPPPPPLPQ             ≤       0
12  AERNYAPRLPRRETS             =     268
13  QLLNPNRRAPRRPLS             =     271
14  SNRRPVPRRPSQPLN             =      83
15  DLPLPDLPPEPPTEL             ≤       0
16  QNTPPLPPKPKSPHL             =     268
17  VYTRTAFQIPGDDKI             ≤       0
18  FYHRPAPKPPVTKKV             =      12
19  KRNRLKILLPFLEQS             =    1290
20  RNNRPVPPPPPMRTT             =      99
21  EQEEIAPSLPSRNSI             ≤       0
22  NHSRSLFSLPGNQQS             =    1120
23  FTLPPPPPPPGLDEL             ≤       0
24  TPTSGPPLLPPRNTM             =     1.5
25  GDHPKGPPPPPPPDE             ≤       0
26  SGVRLPAPPPPPRRG             =    1100
27  TPRLSLPRLPNKHHW             =     764
28  APPLPPTAPPPPSLP             ≤       0
29  IVNKPLPPLPVAGSS             =    7450
30  KTKQQKPAIPQKKSF             =       3
